- test-system: T1, rat collagen (acid soluble, type I, rat tail, Upstate 08-115) (rat, UniProt P02454 152-1207; P02466 86-1125)
- T1 construct: also called dried rat collagen; insoluble rat collagen
- T1 sequence (P02454 152-1207 limits assumed, chain 1 of 2): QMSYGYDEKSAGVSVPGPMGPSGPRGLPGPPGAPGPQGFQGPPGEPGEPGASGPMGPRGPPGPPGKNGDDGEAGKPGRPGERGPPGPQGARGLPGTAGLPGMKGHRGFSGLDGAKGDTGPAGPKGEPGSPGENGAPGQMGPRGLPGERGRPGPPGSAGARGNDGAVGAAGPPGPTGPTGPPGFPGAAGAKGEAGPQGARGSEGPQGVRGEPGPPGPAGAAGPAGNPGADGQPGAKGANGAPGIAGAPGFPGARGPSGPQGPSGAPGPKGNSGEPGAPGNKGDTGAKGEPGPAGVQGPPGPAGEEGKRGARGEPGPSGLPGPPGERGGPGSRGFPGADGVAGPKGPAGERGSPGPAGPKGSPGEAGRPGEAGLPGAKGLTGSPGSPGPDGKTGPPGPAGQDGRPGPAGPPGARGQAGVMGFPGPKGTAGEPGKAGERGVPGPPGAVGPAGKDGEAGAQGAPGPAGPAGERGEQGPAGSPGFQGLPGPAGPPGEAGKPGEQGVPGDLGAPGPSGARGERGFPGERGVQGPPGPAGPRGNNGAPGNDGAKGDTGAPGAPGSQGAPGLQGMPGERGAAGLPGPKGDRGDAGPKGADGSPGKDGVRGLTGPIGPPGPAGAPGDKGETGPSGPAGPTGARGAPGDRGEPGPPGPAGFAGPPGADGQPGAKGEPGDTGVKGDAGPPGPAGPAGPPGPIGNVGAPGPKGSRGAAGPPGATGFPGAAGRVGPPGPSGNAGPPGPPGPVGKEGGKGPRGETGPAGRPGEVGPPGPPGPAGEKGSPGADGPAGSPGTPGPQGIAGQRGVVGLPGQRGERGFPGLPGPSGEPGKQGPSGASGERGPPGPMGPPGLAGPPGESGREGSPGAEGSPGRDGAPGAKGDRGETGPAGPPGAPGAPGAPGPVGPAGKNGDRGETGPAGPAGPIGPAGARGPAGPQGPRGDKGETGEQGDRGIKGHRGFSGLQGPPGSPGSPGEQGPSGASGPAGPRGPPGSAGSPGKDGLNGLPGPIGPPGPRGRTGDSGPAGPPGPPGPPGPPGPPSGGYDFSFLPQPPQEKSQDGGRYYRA
- T1 sequence (P02466 86-1125 limits assumed, chain 2 of 2): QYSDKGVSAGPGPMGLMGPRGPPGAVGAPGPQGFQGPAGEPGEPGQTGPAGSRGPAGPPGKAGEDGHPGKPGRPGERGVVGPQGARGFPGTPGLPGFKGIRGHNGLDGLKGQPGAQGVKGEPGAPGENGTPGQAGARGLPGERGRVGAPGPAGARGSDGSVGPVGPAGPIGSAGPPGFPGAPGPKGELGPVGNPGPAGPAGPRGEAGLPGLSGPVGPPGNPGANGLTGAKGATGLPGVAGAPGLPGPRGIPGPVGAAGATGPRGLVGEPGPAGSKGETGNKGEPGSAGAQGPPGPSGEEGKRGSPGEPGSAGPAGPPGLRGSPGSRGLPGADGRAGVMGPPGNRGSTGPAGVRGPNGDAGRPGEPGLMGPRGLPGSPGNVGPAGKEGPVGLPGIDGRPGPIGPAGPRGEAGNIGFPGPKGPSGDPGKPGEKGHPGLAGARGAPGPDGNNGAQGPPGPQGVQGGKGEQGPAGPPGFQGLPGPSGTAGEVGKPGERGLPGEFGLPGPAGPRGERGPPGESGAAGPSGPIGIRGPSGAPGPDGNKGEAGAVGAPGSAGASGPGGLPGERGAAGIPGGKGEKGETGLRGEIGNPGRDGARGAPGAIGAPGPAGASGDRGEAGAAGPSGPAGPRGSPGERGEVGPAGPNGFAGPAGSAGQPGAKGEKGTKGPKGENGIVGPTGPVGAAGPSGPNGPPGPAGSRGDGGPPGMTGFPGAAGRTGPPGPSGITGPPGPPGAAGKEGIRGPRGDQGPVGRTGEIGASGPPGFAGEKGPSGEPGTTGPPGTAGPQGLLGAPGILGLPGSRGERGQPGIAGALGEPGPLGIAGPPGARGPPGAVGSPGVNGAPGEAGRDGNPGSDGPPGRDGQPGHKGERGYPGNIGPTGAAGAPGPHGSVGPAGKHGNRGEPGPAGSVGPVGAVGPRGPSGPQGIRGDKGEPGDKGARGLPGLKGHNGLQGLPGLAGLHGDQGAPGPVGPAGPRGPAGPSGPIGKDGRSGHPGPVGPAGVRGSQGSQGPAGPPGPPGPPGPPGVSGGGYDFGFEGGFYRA
- protocol-notes: dried collagen assay
Bridge positions count the residues as written; N and C are the ends. Square brackets hold non-standard residues; d marks the D form. Primed or numbered codes have the meaning given here. Side chains are listed from the residue outwards. Ends that are not written are not given here. * marks the point of attachment. GdT″ = Gd-DTPA chelate conjugated through a thiourea; Dip = N[C@H](C(=O)O)C(c1ccccc1)c1ccccc1; Gd^T″ = GdDTPA-thiourea; Cbz = O=C(OCc1ccccc1)*; Dap = NC[C@H](N)C(=O)O
experimental-readout: % bound (%)
The response must be a number in % with no trailing unit.

[
  {
    "binder": "GQWHCTTRFPHAYCLYG (not fully specified; Gd^T-GQWHCTTRFPHAYCLYG) [Comp ID 878]",
    "result-number": 9
  },
  {
    "binder": "Cbz-GQWHCT[Dap](Gd^T″)RFPHHYCLYG (disulfide 5-14; not fully specified (C-terminus); printed as cbz-GQWHCT-Dpr(Gd^T)-RFPHHYCLYG) [Comp ID 939]",
    "result-number": 5
  },
  {
    "binder": "{GdT″}-GK([Gly-GdT″])WHCTTYFPHH[Dip]CLYG (disulfide 5-14; not fully specified (C-terminus)) [Comp ID 968]",
    "result-number": 64
  },
  {
    "binder": "{Gd^T″}-GK([Gly-Gd^T″])WHCTTYFPHHYCL[Dip]G (disulfide 5-14 (inferred); not fully specified (C-terminus); printed as Gd^T-G-K(G.Gd^T)-WHCTTYFPHHYCL-Dip-G) [Comp ID 967]",
    "result-number": 4
  },
  {
    "binder": "GQWHCTTDFPHHYCLYG (not fully specified; Gd^T-GQWHCTTD-F(4-NH2)(Gd^T)-PHHYCLYG) [Comp ID 885]",
    "result-number": 9
  }
]

# input for lookup
Param item = GQWHCTDRFPHHYCLYG (not fully specified; Gd^T-GQWHCTDRFPHHYCLYG) [Comp ID 936] ; retrieve measured % bound.
5
